Experiment: Reversal of P-gp-mediated multidrug resistance in human KB/VCR cells assessed as potentiation of vincristine-induced antiproliferative activity by measuring vincristine IC50 at 2 uM measured after 72 hrs by CCK8 assay (Rvb = 0.51 uM)
pIC50: −log10 of the molar value.
Threshold check on pIC50: at or above 7 gives YES, strictly below gives NO.

Prompt: Evaluate `CC(=O)O[C@@H]1C[C@@H](C)[C@]23OC(C)(C)[C@H]([C@@H](O)[C@H](OC(=O)c4ccccc4)[C@@]2(C)[C@H]1OC(C)=O)[C@H]3OC(=O)/C=C/c1ccccc1` : pIC50 at minimum 7?
Completion: YES

Prompt: Evaluate `CC(=O)O[C@@H]1[C@H]2[C@H](O)[C@H](OC(=O)c3ccccc3)[C@]3(C)[C@@H](OC(C)=O)[C@H](O)C[C@@H](C)[C@@]13OC2(C)C` : pIC50 at minimum 7?
Completion: NO

Prompt: Evaluate `CC(=O)O[C@H]1[C@@H]2[C@@H](OC(C)=O)[C@]3(OC2(C)C)[C@H](C)C[C@@H](OC(C)=O)[C@H](OC(C)=O)[C@@]3(C)[C@H]1OC(=O)c1ccccc1` : pIC50 at minimum 7?
Completion: NO

###

Experiment: Reversal of P-gp-mediated multidrug resistance in human KB/VCR cells assessed as potentiation of vincristine-induced antiproliferative activity by measuring vincristine IC50 at 20 uM measured after 72 hrs by CCK8 assay (Rvb = 0.78 uM)
test-readout: IC50 (nM)
Could you give me the number in nM? Just the number is fine.

Prompt: Quickly give me recorded IC50 for `CC(=O)O[C@@H]1[C@@H]2[C@@H](OC(C)=O)[C@]3(OC2(C)C)[C@H](C)CC[C@H](OC(C)=O)[C@@]3(C)[C@H]1OC(=O)c1ccccc1`
Completion: 34

Prompt: Quickly give me recorded IC50 for `CC(=O)O[C@@H]1[C@H]2[C@H](O)[C@H](OC(=O)c3ccccc3)[C@]3(C)[C@@H](OC(C)=O)[C@H](O)C[C@@H](C)[C@@]13OC2(C)C`
Completion: 310

Prompt: Quickly give me recorded IC50 for `CC(=O)OC[C@]12[C@H](OC(C)=O)C(=O)[C@@H]3[C@@H](O)[C@]1(OC3(C)C)[C@H](C)[C@@H](OC(C)=O)[C@H](OC(C)=O)[C@@H]2OC(C)=O`
Completion: 260

Prompt: Quickly give me recorded IC50 for `CC(=O)O[C@@H]1[C@@H]2[C@@H](OC(C)=O)[C@]3(OC2(C)C)[C@H](C)C[C@H](OC(=O)/C=C/c2ccccc2)[C@H](OC(C)=O)[C@@]3(C)[C@@H]1OC(=O)c1ccccc1`
Completion: 26

Prompt: Quickly give me recorded IC50 for `CC(=O)O[C@H]1[C@@H]2[C@@H](OC(C)=O)[C@]3(OC2(C)C)[C@H](C)C[C@@H](OC(C)=O)[C@H](OC(C)=O)[C@@]3(C)[C@H]1OC(=O)c1ccccc1`
Completion: 56

Prompt: Quickly give me recorded IC50 for `CC(=O)OC[C@]12[C@H](OC(C)=O)C(=O)[C@@H]3[C@@H](OC(C)=O)[C@]1(OC3(C)C)[C@H](C)[C@@H](O)[C@H](OC(C)=O)[C@@H]2OC(C)=O`
Completion: 390

Prompt: Quickly give me recorded IC50 for `CC(=O)OC[C@]12[C@H](OC(C)=O)C(=O)[C@@H]3[C@@H](OC(C)=O)[C@]1(OC3(C)C)[C@H](C)C[C@H](O)[C@@H]2OC(C)=O`
Completion: 330

Prompt: Quickly give me recorded IC50 for `CC(=O)OC[C@]12[C@H](OC(C)=O)C(=O)[C@@H]3[C@@H](O)[C@]1(OC3(C)C)[C@H](C)[C@@H](O)[C@H](OC(C)=O)[C@@H]2OC(C)=O`
Completion: 530

Prompt: Quickly give me recorded IC50 for `CCCCCC(=O)O[C@@H]1[C@@H]2[C@@H](OC(C)=O)[C@]3(OC2(C)C)[C@H](C)C[C@@H](OC(C)=O)[C@H](OC(C)=O)[C@@]3(C)[C@H]1OC(=O)c1ccccc1`
Completion: 21
